# Tested on: mAb SH2
# experimental.details: Competitive ELISA: inhibition of mAb SH2 binding to immobilized (DimLe^x)16-BSA conjugate 1
# Design: species or system mouse
# assay.context: Table 1; RT ln([I1]/[I2]), reference inhibitor DimLe^x 6; T = 296 K
# Description: A MaxiSorp NUNC 96-well ELISA microtiter plate was coated with a dilution of the (DimLe^x)16-BSA conjugate 1 (100 μL per well, 5 μg/mL) in a 10 mM PBS solution at pH 7.1. The plate was covered with sealing tape and incubated at 4 °C overnight. The antigen solution was discarded, and the plate was washed (using ELx405 auto plate washer, 5 × 15 s) with a 10 mM PBS buffer at pH 7.3 containing 0.05% Tween 20. […] The absorbance values were read at 450 nm employing a PowerWave XS plate reader. […]
Overview of reported ∆(∆G) across a group of compounds:
Report the figure in kcal/mol without appending any unit label.

Consider the worked cases shown below.
compound	test.result
CO[C@@H]1O[C@H](CO)[C@@H](O[C@@H]2O[C@H](CO)[C@H](O)[C@H](O)[C@H]2O)[C@H](O[C@@H]2O[C@@H](C)[C@@H](O)[C@@H](O)[C@@H]2O)[C@H]1NC(C)=O [compound 7, Le^x methyl glycoside]	-1.4
CO[C@@H]1O[C@H](CO)[C@@H](O[C@@H]2O[C@H](CO)[C@H](O)[C@H](O[C@@H]3O[C@H](CO)[C@@H](O)[C@H](O)[C@H]3NC(C)=O)[C@H]2O)[C@H](O[C@@H]2O[C@@H](C)[C@@H](O)[C@@H](O)[C@@H]2O)[C@H]1NC(C)=O [compound 10, GlcNAc[1,3″]Le^x]	2.1
CC(=O)NC1C(OC2C(O)C(O)OC(CO)C2O)OC(CO)C(OC2OC(CO)C(O)C(O)C2O)C1OC1OC(C)C(O)C(O)C1O (stereo not shown) [compound 9, Lex[1,3]Gal, reference compound]	0.03

We next turn to a different compound, shown below.
The recorded ∆(∆G) for entry CCCO[C@@H]1O[C@H](CO)[C@@H](O[C@@H]2O[C@H](CO)[C@H](O)[C@H](O[C@@H]3O[C@H](CO)[C@@H](O[C@@H]4O[C@H](CO)[C@H](O)[C@H](O)[C@H]4O)[C@H](O[C@@H]4O[C@@H](C)[C@@H](O)[C@@H](O)[C@@H]4O)[C@H]3NC(C)=O)[C@H]2O)[C@H](O[C@@H]2O[C@@H](C)[C@@H](O)[C@@H](O)[C@@H]2O)[C@H]1NC(C)=O [compound 6, DimLe^x propyl hexasaccharide] equals 0

Value source: paper PMC7563222
